Molecular target: AdeV
Experiment: stopped-flow absorption kinetics (substrate-dependent formation of the […] nm chloro-ferryl feature), with freeze-quench Mössbauer and LC–MS turnover of purified enzyme
testReadout: Kd

Q) Answer with the recorded Kd for the compound listed here: Nc1ncnc2c1ncn2[C@H]1C[C@H](O)[C@@H](COP(=O)(O)O)O1 [compound 1, 2′-deoxyadenosine monophosphate]
A) ~28 mM
